Source of measurements: the supplement of paper PMC10567573

B1: ZBED1 (parent)
chain: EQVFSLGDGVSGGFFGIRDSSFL

# Variants of: B1
# measurement_protocol: protein stability index of a GFP-peptide fusion (GPS, HEK-293T) (PSI 1-6); higher = more stable;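 further: lentivirally expressed fusions sorted by FACS into six bins by GFP to DsRed ratio, PSI derived from sequencing read proportions per bin multiplied by bin number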
# cond: c terminus: native
Reported protein stability index values for a set of variants
reported_metric: protein stability index

[[record]]
residue_string = "ESVFSLGDGVSGGFFGIRDSSFL [Q2S]"
observed_value = 3.44

[[record]]
residue_string = "EQVFSLGMGVSGGFFGIRDSSFL [D8M]"
observed_value = 1.47

[[record]]
residue_string = "EQTFSLGDGVSGGFFGIRDSSFL [V3T]"
observed_value = 3.6

[[record]]
residue_string = "EQVFYLGDGVSGGFFGIRDSSFL [S5Y]"
observed_value = 2.63

[[record]]
residue_string = "EQVFSLGDGVSGGFFGIRDRSFL [S20R]"
observed_value = 3.21

[[record]]
residue_string = "KQVFSLGDGVSGGFFGIRDSSFL [E1K]"
observed_value = 2.64

[[record]]
residue_string = "EQVFSLGDGVSGGFFEIRDSSFL [G16E]"
observed_value = 2.83

[[record]]
residue_string = "ELVFSLGDGVSGGFFGIRDSSFL [Q2L]"
observed_value = 1.8

[[record]]
residue_string = "EQVFSLGDAVSGGFFGIRDSSFL [G9A]"
observed_value = 3.15

[[record]]
residue_string = "EQVFSLGDGVSGGFFGIRDDSFL [S20D]"
observed_value = 3.71

[[record]]
residue_string = "EQLFSLGDGVSGGFFGIRDSSFL [V3L]"
observed_value = 2.91

[[record]]
residue_string = "EQVFSLGDGVSGGFFGVRDSSFL [I17V]"
observed_value = 3.87

[[record]]
residue_string = "EQVFSLGDLVSGGFFGIRDSSFL [G9L]"
observed_value = 2.01

[[record]]
residue_string = "EQVFSLGDGVSGGFFGIRDSSML [F22M]"
observed_value = 3.49

[[record]]
residue_string = "EQVFSLGDGVSGGFFVIRDSSFL [G16V]"
observed_value = 1.85

[[record]]
residue_string = "EQVFSLGDGVSGVFFGIRDSSFL [G13V]"
observed_value = 2.22

[[record]]
residue_string = "EQVFSLGDGVSGGFFGIRDSSPL [F22P]"
observed_value = 3.43

[[record]]
residue_string = "EQVFSLGDGVSGGKFGIRDSSFL [F14K]"
observed_value = 4.3

[[record]]
residue_string = "EQVFSLGDGVSKGFFGIRDSSFL [G12K]"
observed_value = 3.52

[[record]]
residue_string = "EQVFSLGDGVSGGFFGIRDSSFC [L23C]"
observed_value = 3.34

[[record]]
residue_string = "EQVFSLDDGVSGGFFGIRDSSFL [G7D]"
observed_value = 4.29

[[record]]
residue_string = "EQVPSLGDGVSGGFFGIRDSSFL [F4P]"
observed_value = 4.11

[[record]]
residue_string = "EQVFSLTDGVSGGFFGIRDSSFL [G7T]"
observed_value = 3.23

[[record]]
residue_string = "EQVFSLGDGVSGGDFGIRDSSFL [F14D]"
observed_value = 4.16

[[record]]
residue_string = "EQVFSLEDGVSGGFFGIRDSSFL [G7E]"
observed_value = 3.84

[[record]]
residue_string = "ENVFSLGDGVSGGFFGIRDSSFL [Q2N]"
observed_value = 2.98

[[record]]
residue_string = "EQVFSLGDGVSGGWFGIRDSSFL [F14W]"
observed_value = 3.44

[[record]]
residue_string = "EQVFSLGDGVSGGFFGIRQSSFL [D19Q]"
observed_value = 2.15

[[record]]
residue_string = "EQVFQLGDGVSGGFFGIRDSSFL [S5Q]"
observed_value = 3.34

[[record]]
residue_string = "EQVFSLGDGTSGGFFGIRDSSFL [V10T]"
observed_value = 3.78

[[record]]
residue_string = "EQVFSLGDGVSGGFRGIRDSSFL [F15R]"
observed_value = 4.13

[[record]]
residue_string = "EQVFSLGDGVSGGAFGIRDSSFL [F14A]"
observed_value = 3.82

[[record]]
residue_string = "EQVFSLGDGVSGGFFGIRDSHFL [S21H]"
observed_value = 3.46

[[record]]
residue_string = "EQVFSLGDGVSGGFFGARDSSFL [I17A]"
observed_value = 4.37

[[record]]
residue_string = "EQVFSLGDGVSGTFFGIRDSSFL [G13T]"
observed_value = 3.17

[[record]]
residue_string = "EQVFSLGDGVSGGFFGIRDSSRL [F22R]"
observed_value = 3.61

[[record]]
residue_string = "EQVFSLGDGVSGGFFGIRISSFL [D19I]"
observed_value = 1.82

[[record]]
residue_string = "EQVFSLGDGVSGRFFGIRDSSFL [G13R]"
observed_value = 2.96

[[record]]
residue_string = "EQVFSLGDGVAGGFFGIRDSSFL [S11A]"
observed_value = 3.73

[[record]]
residue_string = "EQVFSLGDGVSRGFFGIRDSSFL [G12R]"
observed_value = 2.92

[[record]]
residue_string = "EQVFSLGDCVSGGFFGIRDSSFL [G9C]"
observed_value = 2.32

[[record]]
residue_string = "EQVFSLGDGVSGGFFGIMDSSFL [R18M]"
observed_value = 2.71

[[record]]
residue_string = "EQVFDLGDGVSGGFFGIRDSSFL [S5D]"
observed_value = 3.74

[[record]]
residue_string = "EQVFSLGDGVSGGFFGIRDSSFW [L23W]"
observed_value = 2.66

[[record]]
residue_string = "EQVFSKGDGVSGGFFGIRDSSFL [L6K]"
observed_value = 3.86

[[record]]
residue_string = "EQVFSLGDGVSGGFFGIRDSQFL [S21Q]"
observed_value = 3.48

